# System: PC-12
# Method: Cytotoxicity against rat PC12 cells assessed as reduction in cell viability at 10 uM after 24 hrs by MTT assay
# Format: cell-based
# Reported conditions: pc-12, 24 h
Observation type: Activity

• CC(=O)O[C@H]1C=C2C[C@@H](O)CC[C@]2(CO)[C@H]2CC[C@]3(C)[C@@H]([C@H](C)CCCC(C)C)CC[C@H]3[C@H]12 = Non-Toxic
• C=C(CC[C@@H](C)[C@H]1CC[C@@H]2[C@]1(C)C[C@H](O)[C@@H]1[C@@]3(C)C[C@H](O)[C@H](O)[C@@H](C)[C@@H]3CC(=O)[C@@]21O)C(C)C = Non-Toxic
• C=C(CC[C@@H](C)[C@H]1CC[C@H]2[C@@H]3[C@H](O)C=C4C[C@@H](O)CC[C@]4(COC(C)=O)[C@H]3CC[C@]12C)C(C)C = Non-Toxic

# credit: ChEMBL document CHEMBL4266049
